These data points were gathered from the supplement of paper PMC6555819.

test system: PXR:RXRa (NR concentration 270 nM, RXRa partner concentration 90 nM); assay: PBM binding z-score (relative to random genomic background probes); higher = stronger binding; sequences stand for … in GC…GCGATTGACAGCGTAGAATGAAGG
Label MET when PBM binding z-score >= 1; otherwise NOT MET.

- Biosequence: "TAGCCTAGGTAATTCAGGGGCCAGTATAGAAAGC"
  Label class: "NOT MET"
- Biosequence: "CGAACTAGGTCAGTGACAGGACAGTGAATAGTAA"
  Label class: "NOT MET"
- Biosequence: "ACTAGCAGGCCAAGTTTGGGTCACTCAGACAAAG"
  Label class: "NOT MET"
- Biosequence: "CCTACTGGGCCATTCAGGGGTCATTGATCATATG"
  Label class: "MET"
- Biosequence: "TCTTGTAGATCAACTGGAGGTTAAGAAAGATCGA"
  Label class: "NOT MET"
- Biosequence: "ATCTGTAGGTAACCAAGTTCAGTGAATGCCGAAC"
  Label class: "MET"
- Biosequence: "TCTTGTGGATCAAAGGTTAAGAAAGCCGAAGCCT"
  Label class: "MET"
- Biosequence: "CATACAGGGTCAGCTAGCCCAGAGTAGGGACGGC"
  Label class: "MET"
- Biosequence: "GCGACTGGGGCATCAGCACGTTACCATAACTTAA"
  Label class: "NOT MET"
- Biosequence: "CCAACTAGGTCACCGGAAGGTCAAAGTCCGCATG"
  Label class: "MET"
- Biosequence: "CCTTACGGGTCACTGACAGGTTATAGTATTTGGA"
  Label class: "MET"
- Biosequence: "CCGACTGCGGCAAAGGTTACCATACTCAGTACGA"
  Label class: "MET"
- Biosequence: "ACTCGGAGCACAAAGGTCAGAGCTACGCCAGTGA"
  Label class: "MET"
- Biosequence: "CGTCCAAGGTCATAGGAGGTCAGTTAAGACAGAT"
  Label class: "MET"
- Biosequence: "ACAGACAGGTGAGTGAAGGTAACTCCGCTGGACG"
  Label class: "NOT MET"
- Biosequence: "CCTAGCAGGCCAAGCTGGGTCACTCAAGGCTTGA"
  Label class: "NOT MET"
- Biosequence: "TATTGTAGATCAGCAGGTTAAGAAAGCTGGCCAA"
  Label class: "NOT MET"
- Biosequence: "CCTGGGAGGACAGAAGGTCAGAGCTGTCCGCTTT"
  Label class: "MET"
- Biosequence: "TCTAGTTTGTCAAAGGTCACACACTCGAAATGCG"
  Label class: "MET"
- Biosequence: "TAGCCTAGGTCATGCGGGCCAGGATAGTGTCGGC"
  Label class: "MET"
- Biosequence: "TCATATAGGTAAAAGGTGAGAGTCGGTGTGGTAA"
  Label class: "MET"
- Biosequence: "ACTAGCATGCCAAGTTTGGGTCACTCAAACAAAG"
  Label class: "NOT MET"
- Biosequence: "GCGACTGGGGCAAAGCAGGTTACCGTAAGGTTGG"
  Label class: "NOT MET"
- Biosequence: "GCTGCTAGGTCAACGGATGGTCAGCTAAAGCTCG"
  Label class: "MET"
- Biosequence: "GCTTGTAGATAAAGGTTAAGAAAGACTAAGCTAA"
  Label class: "NOT MET"
- Biosequence: "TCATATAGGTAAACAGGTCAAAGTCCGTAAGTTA"
  Label class: "MET"
- Biosequence: "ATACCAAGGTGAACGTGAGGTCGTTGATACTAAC"
  Label class: "MET"
- Biosequence: "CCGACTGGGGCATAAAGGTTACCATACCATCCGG"
  Label class: "MET"
